- PROCEDURE SUMMARY: Compound solubility in water using in situ salt formation with aqueous HCl
- Assay type: physicochemical
- SETUP CONDITIONS: aqueous buffer, thermodynamic from solid; water with aqueous HCl, in situ salt formation; started at 10 mg/ml, minimum tested 1 mg/ml; read-out: Final Concentration
Measured solubility of individual entries
ATTRIBUTE MEASURED: solubility

| COMPOUND | OBSERVED |
| --- | --- |
| Cn1cc(NC(=O)c2nc(NC(=O)CCNC(=O)c3cc(NC(=O)c4nccn4C)cn3C)cn2C)cc1C(=O)NCCCC(=O)Nc1cn(C)c(C(=O)NCCC(=O)Nc2cc(C(=O)Nc3cn(C)c(C(=O)NCCC(=O)N4CCC(C#CC#CC5CCNCC5)CC4)n3)n(C)c2)n1 [Compound 207] | ≥ 10000 µg/mL |
| Cn1cc(NC(=O)c2nc(NC(=O)CCNC(=O)c3cc(NC(=O)c4nccn4C)cn3C)cn2C)cc1C(=O)NCCCC(=O)Nc1cn(C)c(C(=O)NCCC(=O)Nc2cc(C(=O)Nc3cn(C)c(C(=O)NCCC(=O)N4CCC(N5CCNCC5)CC4)n3)n(C)c2)n1 [Compound 213] | ≥ 3210 µg/mL |
| Cn1cc(NC(=O)c2nccn2C)cc1C(=O)NCCC(=O)Nc1cn(C)c(C(=O)Nc2cc(C(=O)NCC[C@@H](N)C(=O)Nc3cn(C)c(C(=O)NCCC(=O)Nc4cc(C(=O)Nc5cn(C)c(C(=O)NCCC(=O)N6CCC(C#CC#CC7CCNCC7)CC6)n5)n(C)c4)n3)n(C)c2)n1 [Compound 210] | ≥ 10000 µg/mL |
| CN1CC2(CCN(C(=O)CCNC(=O)c3nc(NC(=O)c4cc(NC(=O)CCNC(=O)c5nc(NC(=O)CCCNC(=O)c6cc(NC(=O)c7nc(NC(=O)CCNC(=O)c8cc(NC(=O)c9nccn9C)cn8C)cn7C)cn6C)cn5C)cn4C)cn3C)CC2)C1 [Compound 202] | ≥ 4030 µg/mL |

====

- PROCEDURE SUMMARY: Compound solubility in water using in situ salt formation with aqueous HCl
- Type: physicochemical
- SETUP CONDITIONS: pH of the solution at the end of the experiment, before any aq. NaOH
Measured pH of individual entries
ATTRIBUTE MEASURED: pH

| COMPOUND | OBSERVED |
| --- | --- |
| Cn1cc(NC(=O)c2nc(NC(=O)CCNC(=O)c3cc(NC(=O)c4nccn4C)cn3C)cn2C)cc1C(=O)NCCCC(=O)Nc1cn(C)c(C(=O)NCCC(=O)Nc2cc(C(=O)Nc3cn(C)c(C(=O)NCCCN4CCOCC4)n3)n(C)c2)n1 [Compound 206] | 4.96 |
| Cn1cc(NC(=O)c2nccn2C)cc1C(=O)NCCC(=O)Nc1cn(C)c(C(=O)Nc2cc(C(=O)NCC[C@@H](N)C(=O)Nc3cn(C)c(C(=O)NCCC(=O)Nc4cc(C(=O)Nc5cn(C)c(C(=O)NCCC(=O)N6CCC(C#CC#CC7CCNCC7)CC6)n5)n(C)c4)n3)n(C)c2)n1 [Compound 210] | 2.14 |
| Cn1cc(NC(=O)c2nc(NC(=O)CCNC(=O)c3cc(NC(=O)c4nccn4C)cn3C)cn2C)cc1C(=O)NCCCC(=O)Nc1cn(C)c(C(=O)NCCC(=O)Nc2cc(C(=O)Nc3cn(C)c(C(=O)NCCC(=O)N4CCC(N5CCNCC5)CC4)n3)n(C)c2)n1 [Compound 213] | 6.64 |
| Cn1cc(NC(=O)c2nc(NC(=O)CCNC(=O)c3cc(NC(=O)c4nccn4C)cn3C)cn2C)cc1C(=O)NCCCC(=O)Nc1cn(C)c(C(=O)NCCC(=O)Nc2cc(C(=O)Nc3cn(C)c(C(=O)NCCC(=O)N4CCC(C5CNC5)CC4)n3)n(C)c2)n1 [Compound 204] | 2.32 |
| CN(C)CCCCNC(=O)c1nc(NC(=O)c2cc(NC(=O)CCNC(=O)c3nc(NC(=O)[C@H](N)CCNC(=O)c4cc(NC(=O)c5nc(NC(=O)CCNC(=O)c6cc(NC(=O)c7nccn7C)cn6C)cn5C)cn4C)cn3C)cn2C)cn1C [Compound 211] | 2.14 |
| CN(C)CCOCCNC(=O)c1nc(NC(=O)c2cc(NC(=O)CCNC(=O)c3nc(NC(=O)CCCNC(=O)c4cc(NC(=O)c5nc(NC(=O)CCNC(=O)c6cc(NC(=O)c7nccn7C)cn6C)cn5C)cn4C)cn3C)cn2C)cn1C [Compound 205] | 7.62 |
| CN1CC(C2CCN(C(=O)CCNC(=O)c3nc(NC(=O)c4cc(NC(=O)CCNC(=O)c5nc(NC(=O)CCCNC(=O)c6cc(NC(=O)c7nc(NC(=O)CCNC(=O)c8cc(NC(=O)c9nccn9C)cn8C)cn7C)cn6C)cn5C)cn4C)cn3C)CC2)C1 [Compound 203] | 8.04 |
| CCCCn1cc(NC(=O)c2nc(NC(=O)CCNC(=O)c3cc(NC(=O)c4nccn4C)cn3C)cn2C)cc1C(=O)NCC[C@@H](N)C(=O)Nc1cn(C)c(C(=O)NCCC(=O)Nc2cc(C(=O)Nc3cn(C)c(C(=O)NCCC(=O)N4CCN(C)CC4)n3)n(C)c2)n1 [Compound 214] | 2.16 |
| Cn1cc(NC(=O)c2nc(NC(=O)CCNC(=O)c3cc(NC(=O)c4nccn4C)cn3C)cn2C)cc1C(=O)NCCCC(=O)Nc1cn(C)c(C(=O)NCCC(=O)Nc2cc(C(=O)Nc3cn(C)c(C(=O)NCCC(=O)N4CCC5(CC4)CNC5)n3)n(C)c2)n1 [Compound 208] | 2.75 |
| COCCOCCOCCOCCOCCOCCOc1ccc(C#CCNCCCNC(=O)c2nc(NC(=O)c3cc(NC(=O)CCNC(=O)c4nc(NC(=O)CCCNC(=O)c5cc(NC(=O)c6nc(NC(=O)CCNC(=O)c7cc(NC(=O)c8nccn8C)cn7C)cn6C)cn5C)cn4C)cn3C)cn2C)cc1 [Compound 212] | 1.97 |
| COCCOCCOCCOCCN(CCCNC(=O)c1nc(NC(=O)c2cc(NC(=O)CCNC(=O)c3nc(NC(=O)CCCNC(=O)c4cc(NC(=O)c5nc(NC(=O)CCNC(=O)c6cc(NC(=O)c7nccn7C)cn6C)cn5C)cn4C)cn3C)cn2C)cn1C)CCOCCOCCOCCOC [Compound 201] | 6.04 |
| CN1CCN(C(=O)CCNC(=O)c2nc(NC(=O)c3cc(NC(=O)CCNC(=O)c4nc(NC(=O)[C@H](N)CCNC(=O)c5cc(NC(=O)c6nc(NC(=O)CCNC(=O)c7cc(NC(=O)c8nccn8C)cn7C)cn6C)cn5C)cn4C)cn3C)cn2C)CC1 [Compound 209] | 2.21 |
| CN1CC2(CCN(C(=O)CCNC(=O)c3nc(NC(=O)c4cc(NC(=O)CCNC(=O)c5nc(NC(=O)CCCNC(=O)c6cc(NC(=O)c7nc(NC(=O)CCNC(=O)c8cc(NC(=O)c9nccn9C)cn8C)cn7C)cn6C)cn5C)cn4C)cn3C)CC2)C1 [Compound 202] | 3.10 |
